Task for the reader: assign each of the following variants its reported percent of parent.
B1: Tpz1, two-hybrid fusion, wild type (construct limits not stated) [S. pombe] / Ccq1, two-hybrid fusion, wild type (construct limits not stated) [S. pombe] (parent complex)
chain 1: MSNCLKHPWLENGLLNLIKNADVLPIRVFKCQPLQIFEYIRYEHPIRCKLSDTEFYIEAEFSSQSISDLNNFTEKRITSLRGGIVTLGNFLIHLIPSQSGIIPWIQVESFNFQGCEGAVFGNPKAITTSALFNALLQSPYLAALANEFNRSIKEGSSYQEASLSQQEKPNDNTSNSRDIKNNIQFHWKNMTSLSIEECIIPKGQQLILEKESEENTTHGIYLEERKMAQGLHNSVSETPEVKQEDNDEDLDAYSWSSSTDSAGEIPSLPTNRKILEKIAEKPPPFESPLEDDETPDQTNEHEANQVNVSQLPLNPRGSGISGRPVESTEQLNSSLTIERSQSIQSTDSKQRVETQSHRRSKIEIFDAQDELFDRSICTTIDDSTGKLLNAEETPIKTGDLHSTSASSVISCTPPAINFTSDICNEQIELEYKRKPIPDYDFMKGLETTLQELYVEHQSKKRRLELFQLTNNHQKNSEACEMCRLGLPHGSFFELLRDWKKIEEFRNKS
chain 2: MSEINDFTNSIIINESDTKYEVYSEVNSSNRWIAKEDCPSPLEDVWLLKLAGHKRKLEEPLSCMRNEEPASKQREIEKFLRTDLDHSENDFLTQEVDEFPSTQQLFPIPLQNDTAFDSSEESITKSSKSSFSVLDIGLPMSALQRKMMHRLVQYFAFCIDHFCTGPSDSRIQEKIRLFIQSAHNIAKHPSLYDTEVRNPSAAESTNSHVSLDASNFSSYAENSSKFLFLQELFKNLSPSYSKTFFLFISNQFLANTLTQWLKSQNIDAELWAEEDAKTSQHPAIWICVSKKAPSASHFLQSCPDLSATIFYDIEAYMSVTSSLPSIQSLVLRLIHLGSIEHAIKCFQSSYNASFLVNIVGVVATLSSSSEENSEASNLSTLFEKSGNFEEILGSESHSSITEKTRDIAKNVATWLKNGENFSSWPLPPLMDLASLSVAEPRDSQPSVSQVNDTFVKSSDSTFPSSQSMQSPSKLHSLTSNATDLLSSSSLKKNFFSQQEADEVELSNNYDLQGAAVQYLQRRLRMVEDELHEAINSKNVQQSRSEELEQQISKLTDNLQEYRNTVRELKLDLEKSKKKNEDLSKLEVEKVEEIANLKKELTHLAKQQEFGFKYVQEFSNEDLQGKLIEANEKNYKLTQLLKTQKEDADFITNQYQNASTFAAEQSKEVAKLQAECKRLQAINSKVMEEVKVYNDSRVEALLAKVSSLEETLKILEQKSLPKFTPHNQSPRIIDSN

Variants of: B1
Assay: yeast two-hybrid (β-galactosidase); parent: 100; read off a plot

1. chain 1 D438A | ~100 % WT

Hi there! I need percent of parent for each item below, if you can.
1. chain 1 R433A
2. chain 1 K432A
3. chain 1 F441A

Result:
1. ~90 % WT
2. ~72 % WT
3. ~14 % WT

Go through the items and report each one's percent of parent.
1. chain 1 H456A
2. chain 1 P435A
3. chain 1 L445R
4. chain 1 Y439A
5. chain 1 Y453R

Result:
1: ~100 % WT; 2: ~65 % WT; 3: ~14 % WT; 4: ~15 % WT; 5: ~16 % WT

// percent of parent lookup, variant = chain 1 L449R , result: ~15 % WT
